Target: Sialic acid-binding Ig-like lectin 9 (Homo sapiens)
Test: Hs-Siglec9 ALPHAscreen SOP 20170721
Set-up: scale not given: direction of the effect not stated beside the values
Conditions: 10 µM

>  <compound>
Cc1ccc(C)c(C(NC(=O)C(C)(C)C)c2cccnc2)c1 (stereo unspecified)

>  <Percent Effect [%]>
-1.13

$$$$
>  <compound>
Cc1cccc(N2CCN(C(=O)CN3CCN(CCO)CC3)CC2)c1

>  <Percent Effect [%]>
6.75

$$$$
>  <compound>
Cc1oc(C)c(C(=O)NCc2ccccn2)c1C

>  <Percent Effect [%]>
2.54

$$$$
>  <compound>
CCOCC(O)CN1CCN(C(=O)c2ccnc(N(C)C)c2)CC1 (stereo unspecified)

>  <Percent Effect [%]>
13.5

$$$$
>  <compound>
Cc1ccccc1CCNC(=O)C1CC(=O)N(CC(F)(F)F)C1 (stereo unspecified)

>  <Percent Effect [%]>
-4.07

$$$$
>  <compound>
CC(=O)N1CCC(C(=O)NCCN2CCC(C)CC2)CC1

>  <Percent Effect [%]>
-1.43

$$$$

* * *

Target: Tyrosyl-tRNA synthetase, putative (Trypanosoma cruzi (strain CL Brener)) (UniProt Q4DSP6)
Assay: Trypanosoma cruzi tyrosyl tRNA synthetase (TcYRS) SOP
Format: functional
Set-up: scale not given: direction of the effect not stated beside the values
Settings: 30 µM
measuredQuantity: Percent Effect (%)

>  <compound>
CC(C)c1nc(C(=O)NCCn2ccnc2)nn1-c1cccc(F)c1

>  <recordedValue>
6.17

$$$$
>  <compound>
COc1ccc(OCc2cc(C(=O)N3CCN[C@H](C)C3)n[nH]2)c(Cl)c1

>  <recordedValue>
9.76

$$$$
>  <compound>
NC(=O)COc1cccc(C(=O)N2CCCC(n3ccnc3)C2)c1 (stereo unspecified)

>  <recordedValue>
11

$$$$
>  <compound>
COc1ccnc(N2CCN(C(=O)CCc3nccs3)CC2)n1

>  <recordedValue>
7.32

$$$$
>  <compound>
CCCOCCN1CCC2(CC1)CC(c1ccccc1)C(=O)N2C (stereo unspecified)

>  <recordedValue>
1.24

$$$$
>  <compound>
CN(Cc1nnc(C2CC2)n1C)C1CCN(Cc2ccon2)C1 (stereo unspecified)

>  <recordedValue>
11.1

$$$$
>  <compound>
O=C(NC1CCCN(c2ncccn2)C1)c1ccoc1 (stereo unspecified)

>  <recordedValue>
15.6

$$$$
>  <compound>
O=C(c1ccncn1)N1CCO[C@H]2[C@@H](OCc3cccnc3)CC[C@@H]21

>  <recordedValue>
7.5

$$$$
>  <compound>
COc1ccc(CN2CCn3cc(CN4CCCCC4)nc3C2)cc1

>  <recordedValue>
-8.97

$$$$
>  <compound>
c1ccc(-c2nnc(CNCCn3cccn3)o2)cc1

>  <recordedValue>
8.86

$$$$
>  <compound>
COc1cc(CNC2CCc3nc(C(C)C)nn3C2)cc2c1OCO2 (stereo unspecified)

>  <recordedValue>
-6.17

$$$$

* * *

Molecular target: Tyrosyl-tRNA synthetase, putative (Trypanosoma cruzi (strain CL Brener))
Sequence (whole entry): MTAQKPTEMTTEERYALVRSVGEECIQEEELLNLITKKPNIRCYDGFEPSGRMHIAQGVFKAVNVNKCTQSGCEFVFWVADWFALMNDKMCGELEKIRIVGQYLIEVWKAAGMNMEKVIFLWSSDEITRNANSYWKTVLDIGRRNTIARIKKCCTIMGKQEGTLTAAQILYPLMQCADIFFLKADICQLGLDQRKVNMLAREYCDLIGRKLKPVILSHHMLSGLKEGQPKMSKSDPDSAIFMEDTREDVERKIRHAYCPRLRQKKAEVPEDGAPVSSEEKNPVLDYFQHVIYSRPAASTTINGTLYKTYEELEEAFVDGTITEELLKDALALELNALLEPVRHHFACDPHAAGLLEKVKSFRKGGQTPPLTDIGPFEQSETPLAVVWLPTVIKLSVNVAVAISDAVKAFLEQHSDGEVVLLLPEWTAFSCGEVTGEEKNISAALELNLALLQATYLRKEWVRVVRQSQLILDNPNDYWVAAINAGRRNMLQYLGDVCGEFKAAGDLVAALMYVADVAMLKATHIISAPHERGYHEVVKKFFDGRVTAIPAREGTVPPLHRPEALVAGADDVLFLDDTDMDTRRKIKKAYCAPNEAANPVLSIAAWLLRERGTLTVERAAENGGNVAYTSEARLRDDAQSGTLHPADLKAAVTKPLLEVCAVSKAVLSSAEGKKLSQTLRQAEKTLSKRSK
Assay: Trypanosoma cruzi tyrosyl tRNA synthetase (TcYRS) _High Tyrosine SOP; also: in the data most compounds retested in dose-response had high values
Format: functional
Set-up: scale not given: direction of the effect not stated beside the values
Conditions: 30 µM
measuredQuantity: Percent Effect (%)

>  <molecule>
COc1cccc(CNC(=O)CC2CSc3ncc(C)c(=O)n32)c1 (configuration not stated)

>  <recordedValue>
5.29

$$$$
>  <molecule>
Cc1occc1C(=O)N1CCc2c(COCC3CC3)cncc2C1

>  <recordedValue>
10.8

$$$$
>  <molecule>
CN(CCC#N)C(=O)CCOc1cccc(F)c1

>  <recordedValue>
3.19

$$$$
>  <molecule>
COC(=O)c1ccc2ccn(CC3CCNC3)c(=O)c2c1 (configuration not stated)

>  <recordedValue>
6.45

$$$$
>  <molecule>
CC(C)c1ncc(CN2C[C@@H](CN3CCC(CO)CC3)[C@@H](CO)C2)cn1

>  <recordedValue>
3.83

$$$$
>  <molecule>
CCn1cnnc1CNC(=O)N1CCCN(C(C)=O)CC1

>  <recordedValue>
10.5

$$$$
>  <molecule>
COc1c(CNC2CCOc3ccccc32)c(C(C)C)nn1C (configuration not stated)

>  <recordedValue>
7.92

$$$$
>  <molecule>
CSCC(C)(O)CNC(=O)c1ccc(Br)cc1C (configuration not stated)

>  <recordedValue>
2.15

$$$$
>  <molecule>
O=C(NCc1ccccn1)c1nnn(-c2ccc(Br)cc2)n1

>  <recordedValue>
5.29

$$$$
>  <molecule>
O=C(CCc1ccccn1)N1CCc2cc(Cl)cc(Cl)c2C1

>  <recordedValue>
-1.07

$$$$
>  <molecule>
COc1cccc(CNC(=O)CN2CCCCC2Cn2cccn2)c1 (configuration not stated)

>  <recordedValue>
3.81

$$$$
>  <molecule>
CC1CN(C(=O)CN(Cc2ccco2)C2CC2)CCO1 (configuration not stated)

>  <recordedValue>
1.91

$$$$

* * *

Target: Chromo domain-containing protein 1 (Saccharomyces cerevisiae (strain ATCC 204508 / S288c) (Baker's yeast))
Assay: ScCHD-1 Enzyme Inhibition Assay; also: in the data most compounds retested in dose-response had high values
Type: functional
Design: scale not given: direction of the effect not stated beside the values
Settings: 30 µM
Overview of reported Percent Effect across a group of molecules:
measuredQuantity: Percent Effect

>  <molecule>
O=C(Cc1ccsc1)N1C[C@@H]2CN(Cc3ccoc3)CCO[C@@H]2C1

>  <recordedValue>
11.3%

$$$$
>  <molecule>
O=C(NC[C@@H]1CCCN1)c1cc(COc2cccc(C(F)(F)F)c2)[nH]n1

>  <recordedValue>
-1.17%

$$$$
>  <molecule>
CNc1nc2c(s1)C(c1c(Cl)cccc1Cl)CC(=O)N2 (centres undefined)

>  <recordedValue>
-2.54%

$$$$
>  <molecule>
O=C1[C@H]2CC[C@H](CN(S(=O)(=O)c3ccccc3)C2)N1Cc1cscn1

>  <recordedValue>
2.37%

$$$$
>  <molecule>
COc1ccc(Oc2cncc(C3CCCN3C(C)=O)n2)cc1 (centres undefined)

>  <recordedValue>
-11.7%

$$$$
>  <molecule>
Cc1ncccc1Oc1nccnc1C1CCN(C(C)C)CC1

>  <recordedValue>
-19.2%

$$$$
>  <molecule>
c1ccc(CCN2CCOC(Cn3cccn3)C2)nc1 (centres undefined)

>  <recordedValue>
-7.53%

$$$$
>  <molecule>
CCN(CC)C(=O)Cn1ccc2cc(NC(=O)C3CC3)ccc21

>  <recordedValue>
-12.7%

$$$$
>  <molecule>
c1cc(-c2cnccn2)cc(-c2ccn(CCN3CCCC3)n2)c1

>  <recordedValue>
-0.216%

$$$$
>  <molecule>
CS(=O)(=O)N1CCC2(CN(C(=O)c3cccnc3)C2)C1

>  <recordedValue>
-1.65%

$$$$
>  <molecule>
Cn1cnc2c1CCN(Cc1nc(COc3ccc(F)cc3)no1)C2

>  <recordedValue>
-0.821%

$$$$
>  <molecule>
O=c1nc(SCc2cccnc2)c2c(n1CCO)CCC2

>  <recordedValue>
-7.2%

$$$$
>  <molecule>
O=C(c1nc(=O)[nH][nH]1)N1CCCC(c2cc(C(F)(F)F)[nH]n2)C1 (centres undefined)

>  <recordedValue>
-7.89%

$$$$
>  <molecule>
Cn1cnnc1C1CCCN(C(=O)c2ccc3c(c2)OCCCO3)C1 (centres undefined)

>  <recordedValue>
-15.9%

$$$$
>  <molecule>
O=C1CC(c2ccccc2F)c2c(n3ccsc3nc2=O)N1 (centres undefined)

>  <recordedValue>
-9.93%

$$$$
>  <molecule>
CCn1nc(CC(C)C)cc1C(=O)NCCn1cccc1

>  <recordedValue>
1.57%

$$$$
>  <molecule>
Cc1cnc(C(=O)N2CCCC(n3ccnc3C)C2)cn1 (centres undefined)

>  <recordedValue>
-4.86%

$$$$
>  <molecule>
Cc1ccc(C(=O)N2CCCC(C(=O)N3CCCCC3)C2)c(O)c1 (centres undefined)

>  <recordedValue>
-4.49%

$$$$
>  <molecule>
Cc1nn(C)c(N2CCOCC2)c1CNC1CCOc2ccccc21 (centres undefined)

>  <recordedValue>
-3.12%

$$$$
>  <molecule>
Cc1ccc(CN(Cc2c[nH]cn2)C2CC(C)(C)NC(C)(C)C2)o1

>  <recordedValue>
-10.2%

$$$$
>  <molecule>
CC(=O)Nc1nc(C(=O)N2CCCC(n3ccnc3)C2)cs1 (centres undefined)

>  <recordedValue>
5.04%

$$$$
>  <molecule>
COc1ccc(C(=O)N2CCCCC2c2nc(C)cs2)nn1 (centres undefined)

>  <recordedValue>
69.5%

$$$$
>  <molecule>
Cc1nc(-c2ccccc2)n(CC(=O)N(C(C)C)C(C)C)n1

>  <recordedValue>
-8.42%

$$$$
>  <molecule>
CCn1cc(NC(=O)NCC2(N3CCOCC3)CCSC2)cn1 (centres undefined)

>  <recordedValue>
-4.92%

$$$$
